Molecular target: hNpr1 (Homo sapiens, UniProt P16066)
Sequence (P16066 33-1061): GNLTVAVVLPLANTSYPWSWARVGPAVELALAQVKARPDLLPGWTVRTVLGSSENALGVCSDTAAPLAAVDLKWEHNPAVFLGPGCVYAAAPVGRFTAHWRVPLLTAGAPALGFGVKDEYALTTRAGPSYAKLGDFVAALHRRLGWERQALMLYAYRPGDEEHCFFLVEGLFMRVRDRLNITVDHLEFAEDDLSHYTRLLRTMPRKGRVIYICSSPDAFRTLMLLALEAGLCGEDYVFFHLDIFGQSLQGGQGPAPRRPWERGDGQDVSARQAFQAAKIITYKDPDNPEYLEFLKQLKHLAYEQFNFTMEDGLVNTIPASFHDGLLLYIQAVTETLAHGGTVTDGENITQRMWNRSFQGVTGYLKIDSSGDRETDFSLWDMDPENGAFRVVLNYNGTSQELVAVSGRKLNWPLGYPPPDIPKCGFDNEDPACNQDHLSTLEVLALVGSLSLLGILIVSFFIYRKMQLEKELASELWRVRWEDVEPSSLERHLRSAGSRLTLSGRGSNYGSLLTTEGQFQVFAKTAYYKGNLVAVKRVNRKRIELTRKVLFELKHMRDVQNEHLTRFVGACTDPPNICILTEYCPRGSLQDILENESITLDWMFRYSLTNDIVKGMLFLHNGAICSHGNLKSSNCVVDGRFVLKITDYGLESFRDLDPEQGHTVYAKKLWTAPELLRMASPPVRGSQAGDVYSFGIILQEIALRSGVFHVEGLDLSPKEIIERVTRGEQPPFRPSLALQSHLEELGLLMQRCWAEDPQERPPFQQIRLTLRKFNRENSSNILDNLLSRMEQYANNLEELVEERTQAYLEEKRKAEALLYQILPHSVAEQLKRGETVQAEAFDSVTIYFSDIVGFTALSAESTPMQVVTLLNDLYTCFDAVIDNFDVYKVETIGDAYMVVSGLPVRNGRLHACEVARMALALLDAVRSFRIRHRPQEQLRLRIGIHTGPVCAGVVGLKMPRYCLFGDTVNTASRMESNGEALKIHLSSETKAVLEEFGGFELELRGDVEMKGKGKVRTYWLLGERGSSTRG
Assay: GloSensor assay in 96-well format, HEK-hNpr1-cGMP-sensor cells
Assay type: cell-based
Conditions: 60 pM hNppa 5 minutes after compound; read-out: IC50 [μM] (mean ± SEM), GloSensor 96-well format
Reported values of IC50 for individual entries
# unit: µM | format: bare number

These solved cases illustrate the format of a correct answer.
Compound smiles: CN(Cc1ccccc1)C(=O)c1cn2ccnc(-c3ccccc3)c2n1
Measure unit: µM
IC50: 3.1

Compound smiles: Cc1nn2c(c1-c1ccccc1Oc1ccccc1)N(C(=O)Cc1ccc3c(c1)OCO3)CCC2
Measure unit: µM
IC50: 6.7

Name the reported IC50 value associated with the compound Cc1noc(C)c1-c1cc(-c2ccccc2Oc2ccccc2)cn2cncc12 7.4
